The measurements presented in this section are drawn from ChEMBL document CHEMBL4425186.

TESTED_SYSTEM: Phosphatidylinositol 4,5-bisphosphate 3-kinase catalytic subunit delta isoform (Homo sapiens, UniProt O00329)
Sequence (O00329 whole entry, canonical isoform): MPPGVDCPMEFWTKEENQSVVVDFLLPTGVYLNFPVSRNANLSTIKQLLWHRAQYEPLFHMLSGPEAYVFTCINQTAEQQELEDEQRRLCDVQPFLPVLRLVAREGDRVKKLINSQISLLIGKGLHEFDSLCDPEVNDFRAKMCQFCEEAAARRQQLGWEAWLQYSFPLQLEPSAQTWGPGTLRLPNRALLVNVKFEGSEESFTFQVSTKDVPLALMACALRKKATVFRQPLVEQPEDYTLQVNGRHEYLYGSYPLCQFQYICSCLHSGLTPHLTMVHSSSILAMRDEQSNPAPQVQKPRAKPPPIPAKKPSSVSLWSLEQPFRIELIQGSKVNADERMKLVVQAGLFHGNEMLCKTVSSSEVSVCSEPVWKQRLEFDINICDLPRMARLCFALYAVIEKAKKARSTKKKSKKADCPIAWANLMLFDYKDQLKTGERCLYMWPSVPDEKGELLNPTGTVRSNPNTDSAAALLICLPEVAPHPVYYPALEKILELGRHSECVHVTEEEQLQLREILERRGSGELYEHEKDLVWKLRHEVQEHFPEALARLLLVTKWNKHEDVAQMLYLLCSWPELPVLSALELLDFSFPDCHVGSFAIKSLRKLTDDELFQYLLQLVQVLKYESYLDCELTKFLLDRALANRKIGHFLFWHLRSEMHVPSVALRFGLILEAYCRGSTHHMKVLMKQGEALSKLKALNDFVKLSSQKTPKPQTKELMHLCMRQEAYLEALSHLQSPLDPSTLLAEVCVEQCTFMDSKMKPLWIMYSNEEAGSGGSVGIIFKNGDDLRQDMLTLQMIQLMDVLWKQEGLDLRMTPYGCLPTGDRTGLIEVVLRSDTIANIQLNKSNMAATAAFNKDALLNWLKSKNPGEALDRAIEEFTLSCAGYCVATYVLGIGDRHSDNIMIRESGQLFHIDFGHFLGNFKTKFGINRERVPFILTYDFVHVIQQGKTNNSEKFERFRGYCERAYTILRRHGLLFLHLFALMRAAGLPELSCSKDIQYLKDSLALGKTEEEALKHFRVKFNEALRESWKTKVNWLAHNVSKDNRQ
METHOD_SUMMARY: Inhibition of PI3Kdelta in BCR-stimulated human B cells assessed as suppression of CD86 expression after 18 hrs by FACS analysis
pIC50: −log10 of the molar value.
MEASURE: pIC50

>  <CHEM_SMILES>
CN1CCN(Cc2cccc(-c3cc(-c4ccnn4C4CCOCC4)c4c(N)ncnn34)c2)CC1

>  <pIC50>
6.14

$$$$

(I) Nc1ncnn2c(-c3cccc(C(=O)N4CCCC4)c3)cc(-c3ccnn3C3CCCCC3)c12
(II) CN(C)c1cccc(-c2cc(-c3ccnn3C3CCCCC3)c3c(N)ncnn23)c1
IN: Among I and II , which shows a numerically higher pIC50 result? Mark your answer with the label of the selected entry.
OUT: II
(II: 7.80, I: 7.44)

----------
METHOD_SUMMARY: Oral bioavailability in mouse
Type: ADME, organism-based
RUN_CONDITIONS: in vivo
MEASURE: bioavailability (%)
Please give a number only; it is taken to be in %.

Per the record, CN(C)C(C)(C)c1cccc(-c2cc(-c3ccnn3C3CCOCC3)c3c(N)ncnn23)c1 has bioavailability of 46

----------
METHOD_SUMMARY: Stability in rat liver microsomes assessed as parent compound remaining at 0.5 uM after 10 mins by high throughput assay
Format: ADME, Microsome
RUN_CONDITIONS: read-out: Stability
MEASURE: remaining at 10 min, 0.5 µM (%)
Please give a number only; it is taken to be in %.

Per the record, Nc1ncnn2c(-c3ccncc3)cc(-c3ccnn3C3CCCCC3)c12 has remaining at 10 min, 0.5 µM of 46
